Kindly supply the reported IC50 values for the records listed here.
Biological target: human DGKζ (Homo sapiens)
Construct: TVMV protease cleavage site (C); Hexa-His (C); made in house; host or cells: Sf9 insect cells (baculovirus, Bac-to-Bac)
Sequence (Q13574 with tags, fused parts or gaps isoform Q13574-4): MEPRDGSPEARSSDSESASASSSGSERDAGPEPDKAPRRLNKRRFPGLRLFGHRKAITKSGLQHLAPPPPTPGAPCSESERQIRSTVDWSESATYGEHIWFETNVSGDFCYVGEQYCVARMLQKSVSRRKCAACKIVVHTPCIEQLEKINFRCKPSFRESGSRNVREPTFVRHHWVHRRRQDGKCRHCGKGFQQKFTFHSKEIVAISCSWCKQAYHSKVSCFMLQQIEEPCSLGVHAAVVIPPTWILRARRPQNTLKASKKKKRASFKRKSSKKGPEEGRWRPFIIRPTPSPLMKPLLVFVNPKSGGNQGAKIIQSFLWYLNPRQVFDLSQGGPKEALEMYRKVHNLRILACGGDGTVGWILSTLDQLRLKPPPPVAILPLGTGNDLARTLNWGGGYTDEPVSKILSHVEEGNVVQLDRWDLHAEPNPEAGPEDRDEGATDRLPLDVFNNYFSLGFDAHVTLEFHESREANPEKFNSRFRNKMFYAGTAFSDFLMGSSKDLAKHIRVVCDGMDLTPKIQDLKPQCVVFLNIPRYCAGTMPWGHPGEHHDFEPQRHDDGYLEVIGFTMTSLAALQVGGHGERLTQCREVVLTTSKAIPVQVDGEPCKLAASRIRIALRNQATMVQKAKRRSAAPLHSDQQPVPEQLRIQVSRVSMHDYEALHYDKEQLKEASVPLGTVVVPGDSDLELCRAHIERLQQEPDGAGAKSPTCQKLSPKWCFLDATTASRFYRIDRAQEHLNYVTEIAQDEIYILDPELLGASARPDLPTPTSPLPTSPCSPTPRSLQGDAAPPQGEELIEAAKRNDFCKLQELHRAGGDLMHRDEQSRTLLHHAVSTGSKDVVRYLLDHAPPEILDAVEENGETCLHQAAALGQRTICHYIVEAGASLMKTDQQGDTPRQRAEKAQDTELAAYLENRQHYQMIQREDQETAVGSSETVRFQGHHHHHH
Assay: DGKζ LIPGLO assay (extruded liposome substrate), in vitro DGK inhibition
Format: biochemical
Settings: DGKζ liposome (LIPGLO) assay; read-out: DGKz LIPGLO IC50
Write it as a number; the unit nM goes unstated.

The compound listed as C[C@@H]1CN(c2c(C#N)c(=O)n(C)c3ccc(C#N)nc23)CCN1C(c1ccc(Cl)cc1)c1ccc(C#N)cc1 (single isomer, unassigned) [Example 872] has a reported IC50 of 1400

The compound listed as C[C@@H]1CN(c2c(C#N)c(=O)n(C)c3ccc(C#N)nc23)CCN1C(c1cccc(F)c1)c1ccc(F)cn1 (single isomer, unassigned) [Example 911] has a reported IC50 of 1200

The compound listed as C[C@@H]1CN(c2cc(=O)n(C)c3ccc(C#N)nc23)[C@@H](C)CN1C(c1ccc(F)cc1)c1nc(C2CC2)co1 (single isomer, unassigned) [Example 777] has a reported IC50 of 750
